Ref: the kinase profiling compilation of Christmann-Franck et al. (2016)

- targetEntity: KDR (human) (UniProt P35968)
- Sequence (P35968 whole entry, looked up): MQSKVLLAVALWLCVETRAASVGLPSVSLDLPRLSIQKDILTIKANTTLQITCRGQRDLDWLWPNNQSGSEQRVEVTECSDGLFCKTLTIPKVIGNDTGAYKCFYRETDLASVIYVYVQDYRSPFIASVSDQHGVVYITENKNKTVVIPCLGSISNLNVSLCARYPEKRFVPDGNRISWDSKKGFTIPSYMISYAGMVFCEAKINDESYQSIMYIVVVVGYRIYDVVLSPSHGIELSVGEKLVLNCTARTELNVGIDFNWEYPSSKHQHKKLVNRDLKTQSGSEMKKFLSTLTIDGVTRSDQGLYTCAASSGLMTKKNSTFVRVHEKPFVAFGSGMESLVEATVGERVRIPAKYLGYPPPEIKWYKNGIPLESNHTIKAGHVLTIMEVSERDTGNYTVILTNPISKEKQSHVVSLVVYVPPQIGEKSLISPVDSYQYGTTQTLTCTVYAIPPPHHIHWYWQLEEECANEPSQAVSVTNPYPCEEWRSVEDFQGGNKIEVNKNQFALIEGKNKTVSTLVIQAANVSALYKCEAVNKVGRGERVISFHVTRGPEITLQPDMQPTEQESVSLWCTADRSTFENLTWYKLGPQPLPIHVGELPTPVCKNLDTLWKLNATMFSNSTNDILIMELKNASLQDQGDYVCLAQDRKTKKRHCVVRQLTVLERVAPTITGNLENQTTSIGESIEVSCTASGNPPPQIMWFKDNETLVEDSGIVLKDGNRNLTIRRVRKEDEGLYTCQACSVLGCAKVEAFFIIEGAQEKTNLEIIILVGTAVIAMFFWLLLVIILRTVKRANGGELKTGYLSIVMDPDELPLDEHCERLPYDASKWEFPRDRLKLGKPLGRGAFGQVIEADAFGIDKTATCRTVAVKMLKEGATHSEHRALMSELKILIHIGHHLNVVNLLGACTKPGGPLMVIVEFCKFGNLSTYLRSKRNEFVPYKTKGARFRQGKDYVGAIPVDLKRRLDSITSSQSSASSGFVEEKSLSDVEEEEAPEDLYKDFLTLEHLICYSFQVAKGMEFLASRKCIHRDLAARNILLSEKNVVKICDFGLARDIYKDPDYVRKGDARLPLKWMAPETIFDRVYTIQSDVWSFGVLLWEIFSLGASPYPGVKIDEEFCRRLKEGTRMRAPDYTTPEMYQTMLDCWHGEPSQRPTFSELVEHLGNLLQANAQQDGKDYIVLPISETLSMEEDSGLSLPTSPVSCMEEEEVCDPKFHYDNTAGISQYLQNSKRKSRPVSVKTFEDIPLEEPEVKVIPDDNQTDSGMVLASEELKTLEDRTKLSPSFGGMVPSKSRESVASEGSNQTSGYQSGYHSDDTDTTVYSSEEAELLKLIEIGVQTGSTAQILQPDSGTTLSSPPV
- assayInfo: KINOMEscan competition binding
- runParameters: compound 10.0 µM

| lineNotation | kinase still bound, per cent of control (%) |
| --- | --- |
| COc1cc(C(=O)N2CCC(N3CCN(C)CC3)CC2)ccc1Nc1ncc2c(n1)N(C)c1ccccc1C(=O)N2C | 84 |
| Cc1n[nH]c2ccc(-c3cncc(OC[C@@H](N)Cc4c[nH]c5ccccc45)c3)cc12 | 100 |
| CNC(=O)c1ccc(Nc2cc(Nc3ccccc3S(=O)(=O)C(C)C)c3cc[nH]c3n2)nc1 | 100 |
| CCN1CCN(C(=O)Cc2ccc(Nc3ncc(F)c(Nc4ccc(C(=O)Nc5ccccc5Cl)cc4)n3)cc2)CC1 | 16 |
| O=C(Nc1cccc(Nc2ncc(Br)c(NCCc3cnc[nH]3)n2)c1)N1CCCC1 | 1.8 |
| C=CC(=O)Nc1ccc(CN(C(=O)Nc2c(Cl)c(OC)cc(OC)c2Cl)c2cc(Nc3ccc(N4CCN(C)CC4)cc3)ncn2)cc1 | 0.45 |
| O=C1NC(=O)/C(=C/c2ccc3nccc(-c4ccncc4)c3c2)S1 | 81 |
| C[C@@H](Oc1cc(-c2cnn(C3CCNCC3)c2)cnc1N)c1c(Cl)ccc(F)c1Cl | 78 |
| CCN(CC)CCCCNc1ncc2cc(-c3cc(OC)cc(OC)c3)c(NC(=O)NC(C)(C)C)nc2n1 | 21 |
